system: HT29 colon; assay: NCI-60 one-dose screen, 48 h (100 = growth as untreated, 0 = no growth, -100 = all killed); details: 10 µM unless noted
About 83,000 compounds went through this panel and 20% of them were active in at least one assay; those are over-represented in the sample as a whole. Calls of active or inactive are those of the source. Rule for the calls: active = growth percent below 10; inactive = the rest.
Quantity kind: growth

Past entries and their recorded results:
{"columns": ["Entry smiles", "Quantity kind", "Result"],
 "data": [
  ["CC(=O)Nc1ccc2oc(=O)ccc2c1", "growth", "106% (inactive)"],
  ["O=C1C=CC(=O)N1Cc1ccco1", "growth", "34.1% (inactive)"],
  ["C/C=C/C(=O)OCCCCCCCCCCCC", "growth", "92.6% (inactive)"],
  ["CC(C)(C)OC(=O)NCCc1ccc(N)cc1", "growth", "95.6% (inactive)"],
  ["O=C1c2cccnc2-c2ncccc21", "growth", "106% [100 µM] (inactive)"]
]}

**Q:** Value lookup for growth; key = COc1ccc(CCl)c(C)c1OC
**A:** 102% (inactive)

**Q:** I have this compound here, O=C(c1ccncc1)c1c(Cc2ccccc2)ccc2ccccc12 , and I need its recorded growth.
**A:** 84.9% (inactive)
